Source listed as PubChem BioAssay (NCI).

Test: NCI Yeast Anticancer Drug Screen. Data for the mlh1 rad18 strain (AID 175)
Conditions: S. cerevisiae mlh1 rad18 strain growth inhibition; at 5.0 µM (retest, dose inferred, filed as 0.5); active compounds read high
Compounds without any hit were thinned out: in the full panel of roughly 79,000, 15% have a hit.
Each item that follows carries a reported growth inhibition.
Report the figure in % without appending any unit label.

Some molecules with recorded growth inhibition:
Cc1[nH]c2c(C)cccc2c1C1Cc2ccccc2N1 (stereo unspecified)	4
COC(=O)c1ccc(SCC(=O)c2ccc([N+](=O)[O-])o2)cc1	2
CC(=O)OC1COC(N2C(=O)C(=O)c3cc(Br)ccc32)C(OC(C)=O)C1OC(C)=O (stereo unspecified)	-2

Per the record, Cc1cc(C(=O)O)c(C)cc1SSc1cc(C)c(C(=O)O)cc1C has growth inhibition of -3

Input O=c1nc(NC(c2ccccc2)(c2ccccc2)c2ccccc2)ccn1CCNCCn1ccc(NC(c2ccccc2)(c2ccccc2)c2ccccc2)nc1=O . Output growth inhibition: 90

The molecule listed as O=[N+]([O-])c1ccc(-c2ccccc2Cl)c([N+](=O)[O-])c1 shows growth inhibition equal to 5

Entry under test: Nc1ccccc1Sc1ccc(F)cc1[N+](=O)[O-] . Its growth inhibition was -4

Query CC1(C)CC(N(C(=O)/C=C/c2ccc([N+](=O)[O-])o2)C2CCCCC2)CC(C)(C)N1 yields growth inhibition of -1

----------
Test: NCI Yeast Anticancer Drug Screen. Data for the rad50 strain (AID 155);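 note: 0% = growth of vehicle-only cultures of the same strain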
Conditions: S. cerevisiae rad50 strain growth inhibition; at 5.0 µM (retest, dose inferred, filed as 0.5); active compounds read high
The panel holds about 79,000 compounds, 15% with a hit somewhere; the sample as a whole holds those more often.
Observation Type: growth inhibition (%)
Numeric answer only, unit % assumed.

O=C1OCCCOC(=O)c2cc(ccc2O)OCC#CC#CCOc2ccc(O)c1c2	2
O=C(Nc1c(Cl)cccc1Cl)Oc1c(Br)cc(Br)cc1Br	77
Clc1ccccc1CCc1cc(-c2ccccc2)n[nH]1	-14
Cc1ccccc1C(=O)c1ccc(O)c2ccccc12	-6
CCCc1nc2ccccc2c(=O)n1/N=C/c1ccccc1O	4

# growth inhibition of O=C(O)c1c(Br)c(Br)c(Br)c(Br)c1-c1c2ccc(=O)cc-2oc2cc(O)ccc12 = 94

According to the records, this compound Fc1cccc(C2SCc3nc4ccccc4n32)c1F (stereo not given) displays growth inhibition of -4

Item: COc1ccc(C2CC(c3c(O)ccc4ccccc34)=NN2)cc1OC (stereo not given) | growth inhibition: -4

----------
Assay: NCI Yeast Anticancer Drug Screen. Data for the rad50 strain (AID 155);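 note: 0% = growth of vehicle-only cultures of the same strain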
Conditions: S. cerevisiae rad50 strain growth inhibition; at 50.0 µM
About 79,000 compounds went through this panel and 15% of them were active in at least one assay; those are over-represented in the sample as a whole. The source made the active and inactive calls. No stated cut-off is given here; in the data, active means growth inhibition above about 70%; inactive means the rest.
Output constraint: value belongs to 1 for active, 0 for inactive

OCCCNc1nc2c(Cl)cc(Cl)cc2c2ccccc12	0
CC(=O)Oc1ccc(N2C(=O)C=CC2=O)cc1	1
Nc1cccc2c1C(=O)c1ccc(Cl)cc1C2=O	1
N#Cc1ccc(Cl)cc1[N+](=O)[O-]	1

Which outcome did this test record for the compound CC(=O)Nc1ccc(S(=O)(=O)N/N=C/c2cc(I)cc([N+](=O)[O-])c2O)cc1 ?
1

# outcome recorded in this test, key = COc1ccc(C(C)c2cc3c(cc2OC/C(C)=N/NC(N)=O)OCO3)cc1 (stereo unspecified)
1

Give the logged outcome of this assay for the following compound: CCC[CH2][Sn]([CH2]CCC)([O]C(=O)c1ccc(C)c(N)c1)[O]C(=O)c1ccc(C)c(N)c1
1

----------
Below, each entry is listed with its recorded growth inhibition.
Experiment: NCI Yeast Anticancer Drug Screen. Data for the sgs1 mgt1 strain (AID 161);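 note: 0% = growth of cultures given vehicle only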
Conditions: S. cerevisiae sgs1 mgt1 strain, at 50.0 µM, active compounds read high
The panel holds about 79,000 compounds, 15% with a hit somewhere; the sample as a whole holds those more often.
Unit % implied. Number only.

CCN1CCC(O)(/C=C/c2ccccc2)C(C(=O)/C=C/c2ccccc2)C1 (stereo not drawn)	97.8
CCCCCCN(S(=O)(=O)c1ccc([N+](=O)[O-])cc1)S(=O)(=O)c1ccc([N+](=O)[O-])cc1	71.3

Now take the following molecule into account.
Form field growth inhibition, entry CO[C@H]1C[C@@H]2CC[C@@H](C)[C@@](O)(O2)C(=O)C(=O)N2CCCC[C@H]2C(=O)O[C@H]([C@H](C)C[C@@H]2CC[C@@H](OC(=O)C(C)(CO)CO)[C@H](OC)C2)CC(=O)[C@H](C)/C=C(\C)[C@@H](O)[C@@H](OC)C(=O)[C@H](C)C[C@H](C)/C=C/C=C/C=C/1C : 87.3

----------
Test: NCI Yeast Anticancer Drug Screen. Data for the rad50 strain (AID 155);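 note: 0% = growth of vehicle-only cultures of the same strain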
Details: S. cerevisiae rad50 strain growth inhibition; at 5.0 µM (retest, dose inferred, filed as 0.5)
About 79,000 compounds went through this panel and 15% of them were active in at least one assay; those are over-represented in the sample as a whole. The source made the active and inactive calls. Rule as the data show it: active = growth inhibition above about 70%; inactive = the rest.
Hi there, use one of these labels in your reply, thanks! active, inactive

Please state the recorded outcome for this compound: CCC(=O)C(C(=O)CC)c1c(OC(=O)c2ccccc2)ccc(O)c1C(=O)OC
inactive

Given CC(c1ccccc1C(=O)O)c1cccc2ccccc12 (stereo unspecified) , state the outcome it received in this test.
inactive

Please let me know the test result on file for Oc1ccc(-c2ccccc2)cc1O .
inactive

For this compound, state the assay outcome: CCCCCCCCCCCCSCCCN
inactive

Dear all, I need the recorded test outcome for Cc1nc(C(N)=S)sc1C(=O)CC(=O)C(=O)Nc1nc2ccccc2[nH]1 , thank you.
inactive

So what was the verdict on CC1=C(C(=O)Nc2ccccc2)C(c2ccc(C(C)C)cc2)C(C(=O)Nc2ccccc2)=C(C)N1 in this test?
inactive

Hi team, can someone confirm the assay call for O=C(Nc1cc(Cl)ccc1Oc1cc(Cl)c(Cl)cc1S(=O)(=O)O)Nc1cc(Cl)ccc1Oc1cc(Cl)c(Cl)cc1S(=O)(=O)O ?
inactive

For c1cc[c]([Sn]([S]c2ccccn2)([c]2ccccc2)[c]2ccccc2)cc1 , which call appears in the assay record?
active

I would be grateful if you could indicate the recorded call for OC(Cc1ccc(Br)cc1)CN1CCC(c2ccccc2)CC1 (stereo unspecified) .
active

Please indicate how the test categorized Cc1ccccc1CN(C)CCO .
inactive

I would be grateful if you could indicate the recorded call for O=C(O)C(=O)Cc1ccc(O)cc1 .
inactive

----------
Test: NCI Yeast Anticancer Drug Screen. Data for the mlh1 rad18 strain (AID 175)
Details: S. cerevisiae mlh1 rad18 strain growth inhibition; at 50.0 µM; active compounds read high
This is part of a sample that, as a whole, favours compounds with a hit. Of some 79,000 tested, about 15% had one in any assay.
Observation Type: growth inhibition (%)
Give the number; % is assumed, so skip it.

Sample records with growth inhibition:
CC1=NOC(=O)/C1=C/C=C/c1ccccc1	79.2
COc1ccc(N=Nc2ccc3oc(=O)c(C(=O)Nc4ccc(Cl)cc4)cc3c2)cc1	98.7

growth inhibition for CN1C(=O)c2cccc3c([N+](=O)[O-])ccc(c23)C1=O is 27.6

----------
Assay: NCI Yeast Anticancer Drug Screen. Data for the bub3 strain (AID 167)
Details: S. cerevisiae bub3 mutant strain, at 5.0 µM (retest, dose inferred, filed as 0.5)
Experimental: Growth inhibition of yeast strains with defined genetic alterations is measured as a screen for potential anti-cancer activity. Selected strains with alterations in DNA damage repair or cell cycle control were exposed to compounds and growth inhibition was measured relative to vehicle treated controls. The strain used in this assay is bub3
This is part of a sample that, as a whole, favours compounds with a hit. Of some 79,000 tested, about 15% had one in any assay. Calls of active or inactive are those of the source. No stated cut-off is given here; in the data, active means growth inhibition above about 70%; inactive means the rest.
Choose one outcome from this list and give only that: active, inactive

Here are 2 compounds together with their reported answers.
COc1ccc2c3c(c4cc(OC)c(OC)cc4c2c1)CN1CCC[C@H]1[C@@H]3O	active
Cc1cc(C(O)(C(F)(F)F)C(F)(F)F)cc(C(O)(C(F)(F)F)C(F)(F)F)c1	inactive

Outcome logged for N#Cc1cc2c(cc1Cl)Sc1nccn1S2(=O)=O in this assay:
inactive

Hey, what did the test say about Oc1ccc2c(ccc3ccccc32)c1 ?
inactive

----------
Experiment: NCI Yeast Anticancer Drug Screen. Data for the cln2 rad14 strain (AID 165);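 note: 0% = growth equal to vehicle treated cultures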
Settings: S. cerevisiae cln2 rad14 strain, at 50.0 µM (retest, dose inferred, filed as 5.0)
Description: Growth inhibition of yeast strains with defined genetic alterations is measured as a screen for potential anti-cancer activity. Selected strains with alterations in DNA damage repair or cell cycle control were exposed to compounds and growth inhibition was measured relative to vehicle treated controls. The strain used in this assay is cln2 rad14
This is part of a sample that, as a whole, favours compounds with a hit. Of some 79,000 tested, about 15% had one in any assay. Active and inactive are the calls of the source. Rule as the data show it: active = growth inhibition above about 70%; inactive = the rest.
Please reply with one of these outcomes: active, inactive

# example entries with known answers
Cc1sc(Cc2ccccc2)nc1-c1ccc(N=Cc2ccc(N(CCOS(C)(=O)=O)CCOS(C)(=O)=O)cc2)cc1	active
COc1nc2nc(SC(CC(=O)O)C(=O)c3ccc(Cl)cc3)[nH]c2c2ccccc12 (configuration not stated)	inactive
[Cl][Sn]1([Cl])[CH2]CC[CH2][Sn]([Cl])([Cl])[CH2]CC[CH2][Sn]([Cl])([Cl])[CH2]CC[CH2][Sn]([Cl])([Cl])[CH2]CC[CH2]1	inactive
N#CSCC(=O)c1ccccc1	active
CCCCCN(CCC)CCCCCCCCCN1CCCc2cc(OC)ccc21	inactive

Hi, do you know how COC(=O)c1c(/C(=N/Nc2ccc([N+](=O)[O-])cc2)[N+](=O)[O-])ssc1=N came out in this test?
inactive

Recorded test call requested for CCCCCOC(=O)C(C)SC#N (configuration not stated)
inactive
